experimental_target: TEAD2 (Homo sapiens (Human), UniProt Q15562)
Sequence (Q15562 whole entry): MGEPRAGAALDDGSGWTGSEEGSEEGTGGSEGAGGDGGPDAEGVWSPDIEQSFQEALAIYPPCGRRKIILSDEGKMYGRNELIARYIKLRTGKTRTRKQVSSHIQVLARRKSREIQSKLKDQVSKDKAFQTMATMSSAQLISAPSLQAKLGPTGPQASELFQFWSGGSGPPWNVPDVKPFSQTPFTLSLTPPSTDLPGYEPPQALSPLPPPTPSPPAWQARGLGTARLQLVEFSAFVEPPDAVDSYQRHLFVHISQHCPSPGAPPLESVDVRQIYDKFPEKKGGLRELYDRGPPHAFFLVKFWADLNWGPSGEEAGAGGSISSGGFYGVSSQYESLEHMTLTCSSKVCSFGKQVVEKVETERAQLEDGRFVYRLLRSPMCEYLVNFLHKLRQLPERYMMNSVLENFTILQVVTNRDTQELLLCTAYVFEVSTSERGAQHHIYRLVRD
assay_method_text: TEAD lipid pocket TR-FRET (Lipid HTRF) probe competition assay
Assay type: binding
recorded_conditions: 30 mins incubation with compound; read-out: Lipid HTRF TEAD2 IC50
Procedure: His-tagged TEAD proteins are pre-incubated with TEAD project compounds for 30 minutes or 4 hours at room temperature. Biotinylated lipid pocket probes are then added to the TEAD/Compound mixture and incubated for 60 minutes at room temperature. The lipid pocket probe competes with the test compound for the TEAD lipid pocket until equilibrium is reached. […] The potency of compounds as TEAD lipid pocket binders is determined by IC50 value generated using a non-linear 4 parameter curve fit. […]
Note to self: IC50 under 100 nM means label 1, ties and anything higher get label 0.

Strictly below 100 nM: is that where IC50 of C=C(CNc1cc(-c2ccc(C(C)C(F)(F)F)cc2)c2c(c1C#N)CCO2)C(=O)O (single isomer, unassigned) [Enantiomer C from Example 16] sits?
label 1

Strictly below 100 nM: is that where IC50 of C=C(CNc1cc(-c2ccc(C(F)(F)F)cc2)c2c(c1C#N)CCO2)C(=O)O [Compound 15] sits?
label 0

Strictly below 100 nM: is that where IC50 of C=C(CNc1cc(-c2ccc(C(C)C)cc2)c2c(c1C#N)CCO2)C(=O)NC [Compound 5] sits?
label 0

Strictly below 100 nM: is that where IC50 of C=C(CNc1cc(-c2ccc(C(C)C(F)(F)F)cc2)c2c(c1C#N)CCO2)C(=O)O (single isomer, unassigned) [Enantiomer D from Example 16] sits?
label 0

Strictly below 100 nM: is that where IC50 of C=C(CNc1nc2c(c(-c3ccc(C(C)C)cc3)n1)OCC2)C(=O)O [Compound 20] sits?
label 1

Strictly below 100 nM: is that where IC50 of C=C(CNc1cc(-c2ccc(C(C)C)cc2)c2c(c1C#N)CCO2)C(=O)NO [Compound 9] sits?
label 0
